Tested on: Candida albicans
test.method.notes: Antifungal activity against Candida albicans IMRU 3669 at 1 mg/ml by agar disk diffusion assay
Type: functional
study.conditions: read-out: DIZ
observed.property: zone of inhibition at 1000 µg/mL
Report the figure along with its unit, number first.

O=C1N(c2ccc(Cl)cc2)CC(=S)N1c1ccc(Cl)c(Cl)c1 = 25 mm
N#CC(=S)Nc1ccc(Cl)c(Cl)c1 = 37 mm
O=C1C(=S)N(c2ccc(Br)cc2)C(=O)N1c1ccc2c(c1)Cc1ccccc1-2 = 13 mm
N=C1C(=S)N(c2ccc(I)cc2)C(=S)N1c1ccc(I)cc1 = 19 mm
CCOc1ccc(N2C(=O)N(c3c(CC)cc(Cc4cc(CC)c(N5C(=N)C(=S)N(c6ccc(OCC)cc6)C5=O)c(CC)c4)cc3CC)C(=N)C2=S)cc1 = 12 mm
N=C1C(=S)N(c2ccc(Br)cc2)C(=S)N1c1ccc(Br)cc1 = 18 mm

Turning to the following compound.
query: Consider the compound CC1OC(=N)C(=S)N1c1ccc(Cl)c(Cl)c1 (configuration not stated) and give its measured zone of inhibition at 1000 µg/mL.
result: 21 mm

---

Test system: HeLa
test.method.notes: Cytotoxicity against human HeLa cells assessed as surviving fraction after 48 hrs by SRB assay
Format: functional, cell-based
study.conditions: Homo sapiens, HeLa, 48 h; read-out: IC50
observed.property: IC50 (µg/mL)
All answers are understood in µg/mL, so give the number only.

Example entries begin here.
CCOc1ccc(N2C(=O)N(c3c(CC)cc(Cc4cc(CC)c(N5C(=N)C(=S)N(c6ccc(OCC)cc6)C5=O)c(CC)c4)cc3CC)C(=N)C2=S)cc1 = 2.42
Cc1ccc(-n2c(=O)n(-c3ccc(Cl)cc3)c3nc4cc(C)ccc4nc32)cc1 = 8.32
N=C1C(=S)N(c2ccc(Br)cc2)C(=S)N1c1ccc(Br)cc1 = 8.93

query: Consider the compound O=c1n(-c2ccc(Cl)cc2)c2nc3ccccc3nc2n1-c1ccc(Cl)c(Cl)c1 and give its measured IC50.
result: 7.38

---

Tested on: Bacillus subtilis
test.method.notes: Antibacterial activity against Bacillus subtilis NCIB 3610 at 2.5 mg/ml by agar disk diffusion assay
Type: functional
study.conditions: Bacillus subtilis, NCIB 3610; read-out: DIZ
Entries and their zone of inhibition at 2500 µg/mL
All answers are understood in mm, so give the number only.

N=C1C(=S)N(c2ccc(Cl)c(Cl)c2)C(=O)N1c1ccc(Oc2ccc(N3C(=N)C(=S)N(c4ccc(Cl)c(Cl)c4)C3=O)cc2)cc1 = 19
CC1OC(=N)C(=S)N1c1ccc(Cl)c(Cl)c1 (stereo not drawn) = 27
N=C1C(=S)N(c2ccc(Cl)c(Cl)c2)C(=O)N1c1ccc(Cl)cc1 = 13
O=C1N(c2ccc(Cl)cc2)CC(=S)N1c1ccc(Cl)c(Cl)c1 = 20
N=C1C(=S)N(c2ccc(Br)cc2)C(=S)N1c1ccc(Br)cc1 = 25

query: Field: zone of inhibition at 2500 µg/mL (Bacillus subtilis). Entry: N=C1C(=S)N(c2ccc(I)cc2)C(=S)N1c1ccc(I)cc1
result: 21

query: Field: zone of inhibition at 2500 µg/mL (Bacillus subtilis). Entry: N=C1C(=S)N(c2ccc(Cl)cc2)C(=O)N1c1cccc2ccccc12
result: 18

query: Field: zone of inhibition at 2500 µg/mL (Bacillus subtilis). Entry: CCOc1ccc(N2C(=O)N(c3c(CC)cc(Cc4cc(CC)c(N5C(=N)C(=S)N(c6ccc(OCC)cc6)C5=O)c(CC)c4)cc3CC)C(=N)C2=S)cc1
result: 14
